- target or system: Luciferin 4-monooxygenase (Photinus pyralis)
- assay explanation: Firefly luciferase inhibition profiling of diverse chemical library using quantitative high-throughput screening; further: nearly all actives have a fitted effect of over 65% in size
- condition context: purified P. pyralis luciferase, luminescence, biochemical; series mostly up to 115 µM
The whole screen tested about 76,000 compounds, of which about 1,900 (2.5%) were called active. Not shown: some 5% with an inconclusive outcome. The call rests on the fitted dose curve; in most records, active means well fitted inhibition curve with a large enough effect; inconclusive means small, poorly fitted or top-dose-only effect; inactive means flat fitted curve, though single readings scatter. What follows is part of a selection rich in actives, with near analogues and random picks from the rest.
Answer with one of the outcomes class 1 (active), class 0 (inactive)

Answered examples (5):
Cc1ccc(C(=O)N2CCN(C(=O)c3nnn4c3COC(c3ccccc3)C4)CC2)cc1 (centres undefined)	class 0
CCCCNC(=O)C1CCN(C(=O)c2nnn3c2COC(c2ccc(C)cc2)C3)CC1 (centres undefined)	class 1
CN(C)c1ccc(C(=O)N2CCN(C(=O)c3nnn4c3COC(c3ccc(Cl)cc3)C4)CC2)cc1 (centres undefined)	class 0
O=C([C@@H]1C[C@@H](O)[C@H](O)[C@@H]2NC(=S)N(c3ccc(OC(F)(F)F)cc3)[C@@H]21)N1CCCCC1	class 1
Cc1ccc(C2Cn3nnc(C(=O)N4CCN(C(=O)COc5cccc(C)c5)CC4)c3CO2)cc1 (centres undefined)	class 0

Could you check what this test reported for Cc1cccc(-c2noc([C@@H]3Cc4nc[nH]c4CN3C(=O)Nc3ccccc3)n2)c1 ?
class 1

How about this compound: Cc1ccc(C2Cn3nnc(C(=O)N4CCC(C(=O)Nc5ccc(Cl)cc5)CC4)c3CO2)cc1 (centres undefined)
class 1

What do we get for CC(C)NC(=O)N1Cc2[nH]cnc2C[C@H]1c1nc(-c2ccc(Cl)cc2)no1 ?
class 0

COc1ccc(C2Cn3nnc(C(=O)N4CCC(C(=O)NCC5CCCCC5)CC4)c3CO2)cc1 (centres undefined) ?
class 0
